Biological target: human DGKα (Homo sapiens, UniProt P23743)
Construct: TVMV protease cleavage site (C); Hexa-His (C); made in house; host or cells: Sf9 insect cells (baculovirus, Bac-to-Bac)
Sequence (P23743 with tags, fused parts or gaps): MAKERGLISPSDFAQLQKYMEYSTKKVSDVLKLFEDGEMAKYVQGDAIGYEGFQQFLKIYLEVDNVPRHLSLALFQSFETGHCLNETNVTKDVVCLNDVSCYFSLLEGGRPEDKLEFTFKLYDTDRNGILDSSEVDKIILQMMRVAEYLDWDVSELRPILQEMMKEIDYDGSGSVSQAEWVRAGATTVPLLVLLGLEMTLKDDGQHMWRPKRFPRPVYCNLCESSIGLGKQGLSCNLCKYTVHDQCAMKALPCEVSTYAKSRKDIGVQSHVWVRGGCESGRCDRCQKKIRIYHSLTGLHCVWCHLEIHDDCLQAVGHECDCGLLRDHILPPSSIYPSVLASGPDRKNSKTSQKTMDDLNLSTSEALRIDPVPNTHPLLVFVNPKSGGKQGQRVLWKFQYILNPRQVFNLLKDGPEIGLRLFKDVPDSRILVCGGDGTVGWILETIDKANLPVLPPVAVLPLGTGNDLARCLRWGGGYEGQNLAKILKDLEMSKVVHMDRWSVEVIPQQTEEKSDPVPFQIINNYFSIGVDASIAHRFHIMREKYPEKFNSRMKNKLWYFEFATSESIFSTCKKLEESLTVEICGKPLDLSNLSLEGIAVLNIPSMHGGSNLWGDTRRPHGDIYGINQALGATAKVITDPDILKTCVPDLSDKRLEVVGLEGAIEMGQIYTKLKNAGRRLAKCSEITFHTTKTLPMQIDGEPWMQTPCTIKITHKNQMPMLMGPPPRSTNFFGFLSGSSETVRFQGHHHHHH
Assay: DGKα LIPGLO assay (extruded liposome substrate), in vitro DGK inhibition
Format: biochemical
Details: DGKα liposome (LIPGLO) assay; read-out: DGKa LIPGLO IC50
Listing of entries alongside the reported IC50.
Number in nM, nothing else.

molecule	targetUnderTest	reportedResult
C[C@@H]1CN(c2cc(=O)n(C)c3ccc(C#N)nc23)[C@@H](C)CN1C(c1ccc(F)cc1)c1cc(C(C)(C)C)on1 (single isomer, unassigned) [Example 732]	human DGKα (Homo sapiens, UniProt P23743)	44
C[C@@H]1CN(c2c(C#N)c(=O)n(C)c3ccc(C#N)nc23)CCN1C(c1ccc(F)cc1)c1cccc2c1OC(F)(F)O2 (single isomer, unassigned) [Example 940]	human DGKα (Homo sapiens, UniProt P23743)	25000
CC(c1cccc(C(F)(F)F)c1)N1CCN(c2c(C#N)c(=O)n(C)c3ccc(C#N)nc23)C[C@H]1C (single isomer, unassigned) [Example 971]	human DGKα (Homo sapiens, UniProt P23743)	1800

Now turn to the next molecule.
Entry C[C@@H]1CN(c2c(C#N)c(=O)n(C)c3ccc(C#N)nc23)[C@@H](C)CN1C(c1ccc(Cl)cc1)c1ncccc1F (single isomer, unassigned) [Example 822] ; IC50 = 2700

----------
Molecular target: human DGKα (Homo sapiens)
Construct: TVMV protease cleavage site (C); Hexa-His (C); made in house; host or cells: Sf9 insect cells (baculovirus, Bac-to-Bac)
Assay: DGKα LIPGLO assay (extruded liposome substrate), in vitro DGK inhibition
Type: biochemical
Conditions: liposome (LIPGLO) assay; read-out: DGKa LIPGLO IC50
pIC50: −log10 of the molar value.
pIC50 vs 7: at or above is Yes, below is No.

compound	classAssignment
C[C@@H]1CN(c2cc(=O)n(C)c3ccc(C#N)nc23)[C@@H](C)CN1C(c1ccc(Cl)cc1)c1nc(C2CC2)no1 (single isomer, unassigned) [Example 1286]	Yes
COc1cc(F)ccc1C(c1ccc(F)cc1)N1C[C@H](C)N(c2c(C#N)c(=O)n(C)c3ccc(C#N)nc23)C[C@H]1C (single isomer, unassigned) [Example 111]	No
COc1cccc(C(c2ccc(F)cc2)N2C[C@H](C)N(c3cc(=O)n(C)c4ccc(C#N)nc34)C[C@H]2C)c1 (single isomer, unassigned) [Example 661]	No

Turning to the following compound.
Challenge: Please check the record CC[C@@H]1CN(c2cc(=O)n(C)c3ccc(C#N)nc23)[C@@H](C)CN1C(c1cccc(F)c1)c1ccc(F)cn1 (single isomer, unassigned) [Example 1108] and state if its pIC50 is at or above 7.
Response given: Yes

----------
Listing of entries alongside the reported IC50.
Target: human DGKζ (Homo sapiens, UniProt Q13574)
Construct: TVMV protease cleavage site (C); Hexa-His (C); made in house; host or cells: Sf9 insect cells (baculovirus, Bac-to-Bac)
Sequence (Q13574 with tags, fused parts or gaps isoform Q13574-4): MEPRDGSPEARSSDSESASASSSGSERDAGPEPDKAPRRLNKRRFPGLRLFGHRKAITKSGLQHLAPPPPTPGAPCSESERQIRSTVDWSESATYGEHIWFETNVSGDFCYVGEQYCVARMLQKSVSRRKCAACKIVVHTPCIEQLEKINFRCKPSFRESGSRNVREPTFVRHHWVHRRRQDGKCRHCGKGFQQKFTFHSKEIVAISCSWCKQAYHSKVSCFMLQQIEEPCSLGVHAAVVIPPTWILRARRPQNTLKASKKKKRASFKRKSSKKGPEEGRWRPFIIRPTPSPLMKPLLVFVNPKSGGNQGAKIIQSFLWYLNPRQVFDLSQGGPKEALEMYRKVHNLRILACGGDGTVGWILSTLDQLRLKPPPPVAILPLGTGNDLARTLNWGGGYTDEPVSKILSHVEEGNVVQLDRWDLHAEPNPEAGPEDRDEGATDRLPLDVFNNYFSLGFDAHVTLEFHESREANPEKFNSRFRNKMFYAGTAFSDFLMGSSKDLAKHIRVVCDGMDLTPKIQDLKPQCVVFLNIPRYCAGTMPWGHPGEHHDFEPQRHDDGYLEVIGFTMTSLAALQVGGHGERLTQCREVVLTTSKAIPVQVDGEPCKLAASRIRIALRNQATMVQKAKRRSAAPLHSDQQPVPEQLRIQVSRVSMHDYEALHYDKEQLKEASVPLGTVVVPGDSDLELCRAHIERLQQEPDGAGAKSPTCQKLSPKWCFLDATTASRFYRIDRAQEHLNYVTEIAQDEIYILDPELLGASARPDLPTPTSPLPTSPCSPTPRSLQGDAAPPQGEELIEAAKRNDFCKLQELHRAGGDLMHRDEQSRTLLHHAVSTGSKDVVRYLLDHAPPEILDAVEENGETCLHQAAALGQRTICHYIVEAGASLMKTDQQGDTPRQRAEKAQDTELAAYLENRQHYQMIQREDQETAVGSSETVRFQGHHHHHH
Test: DGKζ LIPGLO assay (extruded liposome substrate), in vitro DGK inhibition
Type: biochemical
Details: liposome (LIPGLO) assay; read-out: DGKz LIPGLO IC50
Number in µM, nothing else.

// solved cases for IC50 follow
compound	targetUnderTest	unitString	reportedResult
C[C@@H]1CN(c2cc(=O)n(C)c3ccc(C#N)nc23)[C@@H](C)CN1C(c1ccc(F)cc1)c1c(F)cc(F)cc1F (single isomer, unassigned) [Example 692]	human DGKζ (Homo sapiens, UniProt Q13574)	µM	2.5
CC(c1cccc(OC(F)(F)F)c1)N1C[C@H](C)N(c2cc(=O)n(C)c3ccc(C#N)nc23)C[C@H]1C (single isomer, unassigned) [Example 1268]	human DGKζ (Homo sapiens, UniProt Q13574)	µM	1

Bench note, human DGKζ (Homo sapiens, UniProt Q13574): CCC(c1ccc(OC(F)(F)F)cc1F)N1C[C@H](CC)N(c2cc(=O)n(C)c3ccc(C#N)nc23)C[C@H]1CC (single isomer, unassigned) [Example 1057] , IC50 reads 0.04
